Every entry's value here was drawn from ChEMBL document CHEMBL1137208.

- measuredOn: Steryl-sulfatase (Homo sapiens, UniProt P08842)
- Sequence (P08842 whole entry): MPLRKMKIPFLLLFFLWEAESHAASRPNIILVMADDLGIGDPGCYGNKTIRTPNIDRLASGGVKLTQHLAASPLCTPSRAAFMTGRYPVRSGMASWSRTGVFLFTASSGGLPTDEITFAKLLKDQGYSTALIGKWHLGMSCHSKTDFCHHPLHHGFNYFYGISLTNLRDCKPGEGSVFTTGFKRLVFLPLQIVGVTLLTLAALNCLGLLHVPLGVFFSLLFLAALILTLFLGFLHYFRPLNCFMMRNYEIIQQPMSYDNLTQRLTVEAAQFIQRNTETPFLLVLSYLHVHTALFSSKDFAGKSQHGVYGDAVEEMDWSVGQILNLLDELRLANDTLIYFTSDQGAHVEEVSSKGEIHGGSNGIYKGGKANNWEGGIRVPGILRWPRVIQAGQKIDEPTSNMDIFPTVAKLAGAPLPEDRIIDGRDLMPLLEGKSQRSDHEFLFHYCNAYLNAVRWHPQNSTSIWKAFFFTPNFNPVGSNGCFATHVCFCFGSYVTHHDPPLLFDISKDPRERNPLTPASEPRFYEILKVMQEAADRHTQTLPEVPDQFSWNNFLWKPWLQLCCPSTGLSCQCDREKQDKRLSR
- measurementNotes: Inhibitory activity against human steroid sulfatase over-expressed in CHO cells
quantity: IC50 (µM)

compound | measuredOn | IC50 [µM]
NS(=O)(=O)Oc1ccc2sc(C34CC5CC(CC(C5)C3)C4)cc(=O)c2c1 | Steryl-sulfatase (Homo sapiens, UniProt P08842) | 0.024
O=C(O)C(=O)c1ccc2oc(C34CC5CC(CC(C5)C3)C4)cc(=O)c2c1 | Steryl-sulfatase (Homo sapiens, UniProt P08842) | 12.3
C[C@]12CC[C@@H]3c4ccc(OS(N)(=O)=O)cc4CC[C@H]3[C@@H]1CCC2=O [EMATE] | Steryl-sulfatase (Homo sapiens, UniProt P08842) | 0.02

a. NS(=O)(=O)Oc1ccc2oc(C34CC5CC(CC(C5)C3)C4)cc(=O)c2c1
b. O=C(O)c1ccc2oc(C34CC5CC(CC(C5)C3)C4)cc(=O)c2c1
c. O=C(O)c1ccc2sc(C34CC5CC(CC(C5)C3)C4)cc(=O)c2c1
Req: Highest IC50 first, then in falling order down to the smallest. Give your ranking as a list of the labels in the requested order.
Resp: b, c, a

---

Form: system (Steryl-sulfatase (Homo sapiens)), quantity (Ki), values below.
quantity: Ki (µM)

compoundStructureString | Ki [µM]
NS(=O)(=O)Oc1ccc2oc(C34CC5CC(CC(C5)C3)C4)cc(=O)c2c1 | 0.19

I. O=C(O)c1ccc2oc(C34CC5CC(CC(C5)C3)C4)cc(=O)c2c1
II. O=C(O)C(=O)c1ccc2oc(C34CC5CC(CC(C5)C3)C4)cc(=O)c2c1
Req: Lab note: record which item had the higher Ki, I or II . // respond with label for picked entry
Resp: II
